test system: 253994-281-T-J1-PDC KRAS-mutant spheroids with HUVEC/MSC, viability; test: Anticancer human tumor 253994-281-T-J1-PDC patient-derived colorectal carcinoma cell line growth inhibition [KRAS2]; conditions: second compound 3.16 µM; first compound 0.316 µM; active means viability on the fitted dose curve at most 10% of control; inactive means the rest;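 further: spheroids exposed to agents for seven days before readout; percent of DMSO vehicle control viability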
Outcome codes: label 1 = active, label 0 = inactive

{"columns": ["COMPOUND", "CLASS NAME"],
 "data": [
  ["Cn1nccc1Nc1nccc(-c2cc3c(s2)C(C)(C)N(CCN2CCOCC2)C3=O)n1 + COc1cc2nc(C)nc(NC(C)c3cc(N)cc(C(F)(F)F)c3)c2cc1OC1CCOC1", "label 0"],
  ["CC(C)NCC(C(=O)N1CCN(c2ncnc3c2C(C)CC3O)CC1)c1ccc(Cl)cc1 (stereo not given) + C=CC(=O)N1CCN(c2nc(=O)n(-c3c(C)ccnc3C(C)C)c3nc(-c4c(O)cccc4F)c(F)cc23)C(C)C1", "label 0"],
  ["CC(C)NCC(C(=O)N1CCN(c2ncnc3c2C(C)CC3O)CC1)c1ccc(Cl)cc1 (stereo not given) + C=CC(=O)N1CCN(c2nc(OCC3CCCN3C)nc3c2CCN(c2cccc4cccc(C)c24)C3)CC1CC#N", "label 1"],
  ["COC(=O)c1ccc2c(C(=Nc3ccc(N(C)C(=O)CN4CCN(C)CC4)cc3)c3ccccc3)c(O)[nH]c2c1 + COc1cc2nc(C)nc(NC(C)c3cc(N)cc(C(F)(F)F)c3)c2cc1OC1CCOC1", "label 0"],
  ["CC(C)NCC(C(=O)N1CCN(c2ncnc3c2C(C)CC3O)CC1)c1ccc(Cl)cc1 (stereo not given) + COc1cc2nc(C)nc(NC(C)c3cc(N)cc(C(F)(F)F)c3)c2cc1OC1CCOC1", "label 0"],
  ["CCN1CCN(Cc2ccc(Nc3ncc(F)c(-c4cc(F)c5nc(C)n(C(C)C)c5c4)n3)nc2)CC1 + COc1cc2nc(C)nc(NC(C)c3cc(N)cc(C(F)(F)F)c3)c2cc1OC1CCOC1", "label 0"],
  ["CC1COCCN1c1cc(-c2ccnn2C)c2ccnc(-c3ccn[nH]3)c2n1 (stereo not given) + CC1OCC2(CCN(c3cnc(Sc4ccnc(N)c4Cl)c(N)n3)CC2)C1N", "label 0"],
  ["COC(=O)c1ccc2c(C(=Nc3ccc(N(C)C(=O)CN4CCN(C)CC4)cc3)c3ccccc3)c(O)[nH]c2c1 + C=CC(=O)N1CCN(c2nc(=O)n(-c3c(C)ccnc3C(C)C)c3nc(-c4c(O)cccc4F)c(F)cc23)C(C)C1", "label 0"],
  ["CC1COCCN1c1cc(-c2ccnn2C)c2ccnc(-c3ccn[nH]3)c2n1 (stereo not given) + COc1cc2nc(C)nc(NC(C)c3cc(N)cc(C(F)(F)F)c3)c2cc1OC1CCOC1", "label 0"],
  ["CC(=O)OC12COC1CC(O)C1(C)C(=O)C(O)C3=C(C)C(OC(=O)C(O)C(NC(=O)OC(C)(C)C)c4ccccc4)CC(O)(C(OC(=O)c4ccccc4)C21)C3(C)C (stereo not given) + C=CC(=O)N1CCN(c2nc(OCC3CCCN3C)nc3c2CCN(c2cccc4cccc(C)c24)C3)CC1CC#N", "label 0"]
]}

These entries and their values trace back to PubChem BioAssay AID1963874.
